Quick reference for DC50 among some molecules
Molecular target: IKZF2 (Homo sapiens, UniProt Q96SW2+Q9UKS7)
Sequence (Q9UKS7 whole entry): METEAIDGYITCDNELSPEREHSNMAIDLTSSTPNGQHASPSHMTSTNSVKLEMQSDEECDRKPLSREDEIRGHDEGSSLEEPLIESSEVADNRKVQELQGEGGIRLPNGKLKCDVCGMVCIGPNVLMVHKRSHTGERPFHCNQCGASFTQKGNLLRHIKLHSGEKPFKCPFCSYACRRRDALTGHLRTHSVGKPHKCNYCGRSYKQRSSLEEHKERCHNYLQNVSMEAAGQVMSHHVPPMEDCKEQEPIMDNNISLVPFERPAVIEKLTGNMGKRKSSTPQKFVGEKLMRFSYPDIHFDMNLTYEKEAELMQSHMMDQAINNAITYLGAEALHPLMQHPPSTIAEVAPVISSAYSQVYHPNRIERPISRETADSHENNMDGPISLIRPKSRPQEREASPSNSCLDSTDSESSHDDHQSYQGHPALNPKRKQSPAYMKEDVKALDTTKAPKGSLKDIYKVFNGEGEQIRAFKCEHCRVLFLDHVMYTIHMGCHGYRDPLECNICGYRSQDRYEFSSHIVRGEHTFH
Sequence (Q96SW2 whole entry): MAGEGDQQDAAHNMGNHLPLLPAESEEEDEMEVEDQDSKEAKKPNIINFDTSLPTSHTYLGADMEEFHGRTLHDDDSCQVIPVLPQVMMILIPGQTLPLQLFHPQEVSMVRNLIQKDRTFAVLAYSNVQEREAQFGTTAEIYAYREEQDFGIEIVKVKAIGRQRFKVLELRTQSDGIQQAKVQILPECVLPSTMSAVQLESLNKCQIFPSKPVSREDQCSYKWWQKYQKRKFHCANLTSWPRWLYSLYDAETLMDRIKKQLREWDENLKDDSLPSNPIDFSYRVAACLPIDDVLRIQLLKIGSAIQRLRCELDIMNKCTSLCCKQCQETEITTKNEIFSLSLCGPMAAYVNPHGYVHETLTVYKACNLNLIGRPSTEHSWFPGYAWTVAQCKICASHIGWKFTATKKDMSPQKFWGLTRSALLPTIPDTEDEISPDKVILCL
Sequence (Q16531 whole entry partner): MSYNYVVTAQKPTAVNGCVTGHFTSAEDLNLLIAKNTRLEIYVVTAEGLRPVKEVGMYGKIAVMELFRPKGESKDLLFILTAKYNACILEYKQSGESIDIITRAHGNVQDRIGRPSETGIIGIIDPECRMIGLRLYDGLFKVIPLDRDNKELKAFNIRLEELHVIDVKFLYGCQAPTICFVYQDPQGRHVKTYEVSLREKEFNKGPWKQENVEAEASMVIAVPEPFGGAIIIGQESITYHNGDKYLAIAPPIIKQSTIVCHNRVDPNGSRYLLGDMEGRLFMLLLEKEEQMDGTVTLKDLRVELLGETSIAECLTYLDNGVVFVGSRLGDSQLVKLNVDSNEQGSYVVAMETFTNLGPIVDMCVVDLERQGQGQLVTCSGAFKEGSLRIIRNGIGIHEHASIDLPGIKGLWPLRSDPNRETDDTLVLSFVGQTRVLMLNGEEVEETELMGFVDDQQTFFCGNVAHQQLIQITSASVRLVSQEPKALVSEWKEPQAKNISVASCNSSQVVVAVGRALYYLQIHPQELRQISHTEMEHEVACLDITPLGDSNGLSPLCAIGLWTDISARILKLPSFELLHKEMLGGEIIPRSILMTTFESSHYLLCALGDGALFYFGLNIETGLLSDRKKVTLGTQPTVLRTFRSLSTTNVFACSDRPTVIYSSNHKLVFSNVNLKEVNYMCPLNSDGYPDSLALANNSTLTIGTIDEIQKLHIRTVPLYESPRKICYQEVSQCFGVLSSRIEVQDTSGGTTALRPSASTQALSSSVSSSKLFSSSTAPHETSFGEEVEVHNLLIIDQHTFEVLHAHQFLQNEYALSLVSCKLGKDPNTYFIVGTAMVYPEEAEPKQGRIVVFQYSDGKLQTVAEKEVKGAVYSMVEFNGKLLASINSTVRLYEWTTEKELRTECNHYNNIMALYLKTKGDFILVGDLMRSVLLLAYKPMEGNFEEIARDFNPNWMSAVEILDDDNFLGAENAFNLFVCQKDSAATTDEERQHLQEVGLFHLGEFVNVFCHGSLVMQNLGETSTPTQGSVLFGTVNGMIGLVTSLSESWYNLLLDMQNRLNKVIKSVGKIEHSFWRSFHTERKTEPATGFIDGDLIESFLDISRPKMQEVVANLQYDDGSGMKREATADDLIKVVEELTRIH
Assay: Prolabel quantification of IKZF2 protein levels in 293GT cells
Format: cell-based
Conditions: Prolabel assay, 293GT cells; read-out: IKZF2 EC50

| molecule | DC50, nM |
| --- | --- |
| O=C1CCC(N2Cc3cc(C4CCN(CCC(F)(F)F)CC4)ccc3C2=O)C(=O)N1 (stereo not shown) | 67 |
| O=C1CCC(N2Cc3cc(C4CCN(Cc5nc(-c6ccccc6)c[nH]5)CC4)ccc3C2=O)C(=O)N1 (stereo not shown) | 8 |
| O=C1CCC(N2Cc3cc(C4CCN(Cc5cnc6cnccn56)CC4)ccc3C2=O)C(=O)N1 (stereo not shown) | 390 |
| O=C1CCC(N2Cc3cc(C4CCN(Cc5ccc6ccccc6c5)CC4)ccc3C2=O)C(=O)N1 (stereo not shown) | 8 |
| O=C1CCC(N2Cc3cc(C4CCN(Cc5ccc(-c6ccccc6)cc5)CC4)ccc3C2=O)C(=O)N1 (stereo not shown) | 7 |
| O=C1CCC(N2Cc3cc(C4CCN(Cc5cn(C6CCC6)nn5)CC4)ccc3C2=O)C(=O)N1 (stereo not shown) | 34 |
| O=C1CCC(N2Cc3cc(C4CCN(CC5CCCCC5)CC4)ccc3C2=O)C(=O)N1 (stereo not shown) | 13 |
| O=C1CCC(N2Cc3cc(C4CCN(Cc5ccns5)CC4)ccc3C2=O)C(=O)N1 (stereo not shown) | 490 |
| O=C1CCC(N2Cc3cc(C4CCN(Cc5cccc6c5OCCO6)CC4)ccc3C2=O)C(=O)N1 (stereo not shown) | 4 |
| Cc1ccc(CN2CCC(c3ccc4c(c3)CN(C3CCC(=O)NC3=O)C4=O)CC2)c(C)c1 (stereo not shown) | 9 |
| O=C1CCC(N2Cc3cc(C4CCN(Cc5cccc6ncnn56)CC4)ccc3C2=O)C(=O)N1 (stereo not shown) | 190 |
| O=C1CCC(N2Cc3cc(C4CCN(Cc5ccccc5)CC4)ccc3C2=O)C(=O)N1 (stereo not shown) | 9 |
| O=C1CCC(N2Cc3cc(C4CCN(CC5CC5)CC4)ccc3C2=O)C(=O)N1 (stereo not shown) | 23 |
| O=C1CCC(N2Cc3cc(C4CCN(Cc5cc[nH]c5)CC4)ccc3C2=O)C(=O)N1 (stereo not shown) | 140 |
| COCc1ccc(CN2CCC(c3ccc4c(c3)CN(C3CCC(=O)NC3=O)C4=O)CC2)cc1 (stereo not shown) | 16 |
| COc1ncc(CN2CCC(c3ccc4c(c3)CN(C3CCC(=O)NC3=O)C4=O)CC2)cn1 (stereo not shown) | 3 |
